Molecular target: Matrix metalloproteinase-9 (Homo sapiens, UniProt P14780)
Sequence (P14780 whole entry): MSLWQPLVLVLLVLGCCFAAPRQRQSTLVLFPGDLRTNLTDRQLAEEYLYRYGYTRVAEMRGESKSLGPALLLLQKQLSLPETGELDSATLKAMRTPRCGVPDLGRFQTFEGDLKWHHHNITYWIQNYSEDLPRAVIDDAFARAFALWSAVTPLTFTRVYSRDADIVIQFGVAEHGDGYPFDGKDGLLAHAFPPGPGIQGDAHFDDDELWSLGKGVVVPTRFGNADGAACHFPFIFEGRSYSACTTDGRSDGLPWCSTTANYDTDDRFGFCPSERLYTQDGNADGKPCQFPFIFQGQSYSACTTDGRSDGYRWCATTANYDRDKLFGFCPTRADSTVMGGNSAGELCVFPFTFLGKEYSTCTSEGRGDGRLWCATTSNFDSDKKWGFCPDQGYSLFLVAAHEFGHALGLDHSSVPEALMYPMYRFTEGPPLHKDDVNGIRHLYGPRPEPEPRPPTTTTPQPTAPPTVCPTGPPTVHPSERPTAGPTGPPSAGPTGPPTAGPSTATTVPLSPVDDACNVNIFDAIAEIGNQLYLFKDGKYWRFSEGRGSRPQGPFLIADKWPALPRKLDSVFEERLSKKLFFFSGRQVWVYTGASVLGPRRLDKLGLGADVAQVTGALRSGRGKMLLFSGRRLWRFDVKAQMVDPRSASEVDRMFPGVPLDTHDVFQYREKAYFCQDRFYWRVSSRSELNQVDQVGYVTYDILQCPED
Assay: Reduction of MMP9 activity in TNF-alpha/IL1-beta-stimulated human Caco-2 cells treated 1 hr before stimulation by zymography
reported_metric: IC50 (µM)

Reference set, count: 2
>  <compound>
COc1cc(/C=C/C(=O)CC(=O)/C=C/c2ccc(O)c(OC)c2)ccc1O

>  <value_units>
µM

>  <IC50>
8.5

$$$$
>  <compound>
COc1cc(/C=C/c2cc(C)[nH]n2)ccc1O

>  <value_units>
µM

>  <IC50>
17.6

$$$$

I = COc1cc(/C=C/c2cc(/C=C/c3ccc(O)c(OC)c3)[nH]n2)ccc1O
II = COc1cc(/C=C/c2n[nH]c(C)c2C)ccc1O
Which item exceeds the other in IC50, I or II ? Identify your selection by its label.
I
(I: 19.4 µM, II: 8 µM)

Hey, just so you know, these numbers are from ChEMBL document CHEMBL1143360.
